Attribution: ChEMBL document CHEMBL1136657

system: Pseudomonas aeruginosa; assay: Minimum inhibitory concentration against Pseudomonas aeruginosa (GC 2214) control was determined; assay type: functional
readoutLabel: MIC

COc1ccc2cc(CO[C@@H]3[C@@H](O[C@H]4[C@H](O)[C@H](O)[C@@H](Oc5ccc(C[C@H]6NC(=O)[C@H]([C@@H](C)c7ccccc7)NC(=O)CNC(=O)[C@H](CO)NC(=O)[C@@H]([C@@H](O)[C@@H]7CN=C(N)N7[C@H]7O[C@H](O)[C@@H](O)[C@H](O)[C@@H]7O)NC(=O)[C@H]([C@@H](O)[C@@H]7CN=C(N)N7)NC6=O)cc5)O[C@@H]4CO)O[C@H](CO)[C@@H](O)[C@@H]3O)ccc2c1 = > 128 µg/mL

IN: I'd like to know its MIC. The compound in question is CN[C@H](CC(C)C)C(=O)N[C@H]1C(=O)N[C@@H](CC(N)=O)C(=O)N[C@H]2C(=O)N[C@H]3C(=O)N[C@H](C(=O)N[C@H](C(=O)O)c4cc(O)cc(O)c4-c4cc3ccc4O)[C@H](O)c3ccc(c(Cl)c3)Oc3cc2cc(c3O[C@@H]2O[C@H](CO)[C@@H](O)[C@H](O)[C@H]2O[C@H]2C[C@](C)(N)[C@H](O)[C@H](C)O2)Oc2ccc(cc2Cl)[C@H]1O [VANCOMYCIN]
OUT: > 64 µg/mL

IN: Query (compound): COc1ccc2cc(CO[C@H]3[C@H](O)[C@@H](CO)OC(O[C@H]4[C@H](O)[C@H](O)[C@@H](Oc5ccc(C[C@H]6NC(=O)[C@H]([C@@H](C)c7ccccc7)NC(=O)CNC(=O)[C@H](CO)NC(=O)[C@@H]([C@@H](O)[C@@H]7CN=C(N)N7[C@H]7O[C@H](O)[C@@H](O)[C@H](O)[C@@H]7O)NC(=O)[C@H]([C@@H](O)[C@@H]7CN=C(N)N7)NC6=O)cc5)O[C@@H]4CO)[C@H]3O)ccc2c1 (stereo not given in full) ; field requested: MIC
OUT: > 128 µg/mL

IN: Report MIC for "COc1ccc2cc(COC[C@H]3O[C@H](O[C@H]4[C@H](O)[C@H](O)[C@@H](Oc5ccc(C[C@H]6NC(=O)[C@H]([C@@H](C)c7ccccc7)NC(=O)CNC(=O)[C@H](CO)NC(=O)[C@@H]([C@@H](O)[C@@H]7CN=C(N)N7[C@H]7O[C@H](O)[C@@H](O)[C@H](O)[C@@H]7O)NC(=O)[C@H]([C@@H](O)[C@@H]7CN=C(N)N7)NC6=O)cc5)O[C@@H]4CO)[C@@H](O)[C@@H](O)[C@@H]3O)ccc2c1" please.
OUT: 0.12 µg/mL

IN: Looking for the measured MIC of "COc1ccc2cc(CO[C@H]3[C@H](O)[C@H](O)[C@@H](O[C@H]4[C@H](O)[C@H](O)[C@@H](Oc5ccc(C[C@H]6NC(=O)[C@H]([C@@H](C)c7ccccc7)NC(=O)CNC(=O)[C@H](CO)NC(=O)[C@@H]([C@@H](O)[C@@H]7CN=C(N)N7[C@H]7O[C@H](O)[C@@H](O)[C@H](O)[C@@H]7O)NC(=O)[C@H]([C@@H](O)[C@@H]7CN=C(N)N7)NC6=O)cc5)O[C@@H]4CO)O[C@@H]3CO)ccc2c1" , can you help?
OUT: > 64 µg/mL

###

# key: entry, value: MIC
system: Streptococcus; test: Minimum inhibitory concentration against Streptococcus species. was determined; type: functional
Express your answer in µg/mL, writing the number without its unit.

// solved cases for MIC follow
C[C@@H](c1ccccc1)[C@@H]1NC(=O)CNC(=O)[C@H](CO)NC(=O)[C@@H]([C@@H](O)[C@@H]2CN=C(N)N2[C@H]2O[C@H](O)[C@@H](O)[C@H](O)[C@@H]2O)NC(=O)[C@H]([C@@H](O)[C@@H]2CN=C(N)N2)NC(=O)[C@@H](Cc2ccc(O[C@H]3O[C@H](CO)[C@@H](O[C@H]4O[C@H](CO)[C@@H](O)[C@H](O)[C@@H]4O)[C@H](O)[C@@H]3O)cc2)NC1=O = 32
CC(C)CC(=O)O[C@H]1[C@H](O)[C@H](O)[C@@H](O[C@H]2[C@H](O)[C@H](O)[C@@H](Oc3ccc(C[C@H]4NC(=O)[C@H]([C@@H](C)c5ccccc5)NC(=O)CNC(=O)[C@H](CO)NC(=O)[C@@H]([C@@H](O)[C@@H]5CN=C(N)N5[C@H]5O[C@H](O)[C@@H](O)[C@H](O)[C@@H]5O)NC(=O)[C@H]([C@@H](O)[C@@H]5CN=C(N)N5)NC4=O)cc3)O[C@@H]2CO)O[C@@H]1CO = 2
CC(C)CC(=O)O[C@@H]1[C@@H](O[C@H]2[C@H](O)[C@H](O)[C@@H](Oc3ccc(C[C@H]4NC(=O)[C@H]([C@@H](C)c5ccccc5)NC(=O)CNC(=O)[C@H](CO)NC(=O)[C@@H]([C@@H](O)[C@@H]5CN=C(N)N5[C@H]5O[C@H](O)[C@@H](O)[C@H](O)[C@@H]5O)NC(=O)[C@H]([C@@H](O)[C@@H]5CN=C(N)N5)NC4=O)cc3)O[C@@H]2CO)O[C@H](CO)[C@@H](O)[C@@H]1O = 8

IN: Find MIC (Streptococcus) for the entry "CC(C)CC(=O)O[C@@H]1[C@H](O)[C@@H](O[C@H]2[C@H](O)[C@H](O)[C@@H](Oc3ccc(C[C@H]4NC(=O)[C@H]([C@@H](C)c5ccccc5)NC(=O)CNC(=O)[C@H](CO)NC(=O)[C@@H]([C@@H](O)[C@@H]5CN=C(N)N5[C@H]5O[C@H](O)[C@@H](O)[C@H](O)[C@@H]5O)NC(=O)[C@H]([C@@H](O)[C@@H]5CN=C(N)N5)NC4=O)cc3)O[C@@H]2CO)O[C@H](CO)[C@H]1O"
OUT: 8

###

This listing pairs molecules with measured MIC.
system: Streptococcus pneumoniae; test: Minimum inhibitory concentration against Streptococcus pneumoniae (GC 4565) was determined; assay type: functional

Examples with answers:
COc1ccc2cc(CO[C@H]3[C@H](O)[C@H](O)[C@@H](O[C@H]4[C@H](O)[C@H](O)[C@@H](Oc5ccc(C[C@H]6NC(=O)[C@H]([C@@H](C)c7ccccc7)NC(=O)CNC(=O)[C@H](CO)NC(=O)[C@@H]([C@@H](O)[C@@H]7CN=C(N)N7[C@H]7O[C@H](O)[C@@H](O)[C@H](O)[C@@H]7O)NC(=O)[C@H]([C@@H](O)[C@@H]7CN=C(N)N7)NC6=O)cc5)O[C@@H]4CO)O[C@@H]3CO)ccc2c1 = ≤ 0.06 µg/mL
COc1ccc2cc(COC[C@H]3O[C@H](O[C@H]4[C@H](O)[C@H](O)[C@@H](Oc5ccc(C[C@H]6NC(=O)[C@H]([C@@H](C)c7ccccc7)NC(=O)CNC(=O)[C@H](CO)NC(=O)[C@@H]([C@@H](O)[C@@H]7CN=C(N)N7[C@H]7O[C@H](O)[C@@H](O)[C@H](O)[C@@H]7O)NC(=O)[C@H]([C@@H](O)[C@@H]7CN=C(N)N7)NC6=O)cc5)O[C@@H]4CO)[C@@H](O)[C@@H](O)[C@@H]3O)ccc2c1 = 0.5 µg/mL

Kindly consider the entry below.
IN: Dear colleague, I am looking for the recorded MIC of the following molecule: COc1ccc2cc(CO[C@H]3[C@H](O)[C@@H](CO)OC(O[C@H]4[C@H](O)[C@H](O)[C@@H](Oc5ccc(C[C@H]6NC(=O)[C@H]([C@@H](C)c7ccccc7)NC(=O)CNC(=O)[C@H](CO)NC(=O)[C@@H]([C@@H](O)[C@@H]7CN=C(N)N7[C@H]7O[C@H](O)[C@@H](O)[C@H](O)[C@@H]7O)NC(=O)[C@H]([C@@H](O)[C@@H]7CN=C(N)N7)NC6=O)cc5)O[C@@H]4CO)[C@H]3O)ccc2c1 (stereo partly drawn)
OUT: 0.25 µg/mL

###

tested on: Enterococcus faecalis; assay: Minimum inhibitory concentration against Enterococcus faecalis (GC 4555) was determined; assay type: functional
readoutLabel: MIC

IN: What value of MIC has been recorded for this entry: "COc1ccc2cc(CO[C@@H]3[C@@H](O[C@H]4[C@H](O)[C@H](O)[C@@H](Oc5ccc(C[C@H]6NC(=O)[C@H]([C@@H](C)c7ccccc7)NC(=O)CNC(=O)[C@H](CO)NC(=O)[C@@H]([C@@H](O)[C@@H]7CN=C(N)N7[C@H]7O[C@H](O)[C@@H](O)[C@H](O)[C@@H]7O)NC(=O)[C@H]([C@@H](O)[C@@H]7CN=C(N)N7)NC6=O)cc5)O[C@@H]4CO)O[C@H](CO)[C@@H](O)[C@@H]3O)ccc2c1"
OUT: > 128 µg/mL

###

test system: Enterococcus faecalis; assay: Minimum inhibitory concentration against Enterococcus faecalis (GC 4554) was determined; assay type: functional
readoutLabel: MIC (µg/mL)
Could you give me the number in µg/mL? Just the number is fine.

IN: // MIC lookup, key: "COc1ccc2cc(CO[C@H]3[C@H](O)[C@H](O)[C@@H](O[C@H]4[C@H](O)[C@H](O)[C@@H](Oc5ccc(C[C@H]6NC(=O)[C@H]([C@@H](C)c7ccccc7)NC(=O)CNC(=O)[C@H](CO)NC(=O)[C@@H]([C@@H](O)[C@@H]7CN=C(N)N7[C@H]7O[C@H](O)[C@@H](O)[C@H](O)[C@@H]7O)NC(=O)[C@H]([C@@H](O)[C@@H]7CN=C(N)N7)NC6=O)cc5)O[C@@H]4CO)O[C@@H]3CO)ccc2c1"
OUT: 2
